TARGET DESC: human orexin-1 receptor (Homo sapiens (Human), UniProt O43613)
Sequence (O43613 whole entry): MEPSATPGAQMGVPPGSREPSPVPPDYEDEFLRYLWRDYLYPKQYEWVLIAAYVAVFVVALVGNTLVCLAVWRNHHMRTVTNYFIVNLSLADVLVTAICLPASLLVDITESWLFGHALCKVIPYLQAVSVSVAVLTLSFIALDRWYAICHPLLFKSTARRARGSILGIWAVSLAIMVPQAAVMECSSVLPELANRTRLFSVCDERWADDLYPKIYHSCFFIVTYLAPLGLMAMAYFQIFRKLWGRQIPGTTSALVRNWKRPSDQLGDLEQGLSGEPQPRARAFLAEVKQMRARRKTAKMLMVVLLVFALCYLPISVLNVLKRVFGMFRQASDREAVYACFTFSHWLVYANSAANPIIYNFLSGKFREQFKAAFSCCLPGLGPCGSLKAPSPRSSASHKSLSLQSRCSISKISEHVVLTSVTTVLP
ASSAY DETAILS: In vitro assay: intracellular calcium measurements (FLIPR), antagonistic activity
Assay type: cell-based
MEASUREMENT CONDITIONS: CHO cells, 3 nM orexin-A, compound incubation 120 min; marked values are geometric means of n = 2-6; read-out: IC50 OX1
Under this convention, 1.0 denotes IC50 strictly below 1000 nM and 0.0 denotes IC50 at or above 1000 nM.

> print(dat)
                                   compound                               target.desc  label.class
1  COc1cncc(OC)c1C1CCCC(=O)N1Cc1cccc(-n2cccn2)n1 (centres unmarked)  human orexin-1 receptor (Homo sapiens (Human), UniProt O43613)          0.0
2  COc1cccc(OC)c1C1CC(C)C(=O)N1Cc1cccc(OCCF)c1 (centres unmarked)  human orexin-1 receptor (Homo sapiens (Human), UniProt O43613)          1.0
3  CCOc1ccccc1[C@@H]1C[C@@H](O)C(=O)N1Cc1ccc(OC(F)(F)F)cc1 (racemic)  human orexin-1 receptor (Homo sapiens (Human), UniProt O43613)          0.0
4  COc1cccc(OC)c1C1CC(C)C(=O)N1Cc1cccc(-c2ccccc2)n1 (centres unmarked)  human orexin-1 receptor (Homo sapiens (Human), UniProt O43613)          1.0
5  COc1ccc2c(c1C1CCCC(=O)N1Cc1cccc(-c3ccccc3)c1)OCO2 (centres unmarked)  human orexin-1 receptor (Homo sapiens (Human), UniProt O43613)          1.0
6  COc1cccc(OC)c1C1CCCC(=O)N1Cc1ccc2nccnc2c1 (centres unmarked)  human orexin-1 receptor (Homo sapiens (Human), UniProt O43613)          1.0
7  COc1cccc(OC)c1C1CCC(=O)N1Cc1cccc(-c2ccccn2)c1 (centres unmarked)  human orexin-1 receptor (Homo sapiens (Human), UniProt O43613)          1.0
8  COc1ccccc1[C@@H]1C[C@H](F)C(=O)N1Cc1ccc(OC(F)(F)F)cc1 (racemic)  human orexin-1 receptor (Homo sapiens (Human), UniProt O43613)          0.0

###

TARGET DESC: human orexin-2 receptor (Homo sapiens (Human), UniProt O43614)
Sequence (O43614 whole entry): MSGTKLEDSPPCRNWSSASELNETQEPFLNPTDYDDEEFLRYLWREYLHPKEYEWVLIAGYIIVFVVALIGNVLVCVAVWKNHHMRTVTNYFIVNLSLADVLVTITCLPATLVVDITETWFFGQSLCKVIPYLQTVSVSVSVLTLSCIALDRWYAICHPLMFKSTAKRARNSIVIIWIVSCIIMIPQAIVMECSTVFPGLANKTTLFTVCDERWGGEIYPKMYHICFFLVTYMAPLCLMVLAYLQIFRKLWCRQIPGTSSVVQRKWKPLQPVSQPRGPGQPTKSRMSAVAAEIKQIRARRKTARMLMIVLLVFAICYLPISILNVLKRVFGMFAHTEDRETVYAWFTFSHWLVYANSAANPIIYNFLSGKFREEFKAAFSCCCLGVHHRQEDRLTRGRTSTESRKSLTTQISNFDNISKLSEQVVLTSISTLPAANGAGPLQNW
ASSAY DETAILS: In vitro assay: intracellular calcium measurements (FLIPR), antagonistic activity
Assay type: cell-based
MEASUREMENT CONDITIONS: read-out: IC50 OX2
PROPERTY LABEL: IC50 (nM)

> print(dat)
                                   molecule  property.label  result.unit  observed.measurement
1  CCCOc1ccc(CN2C(=O)C(C)CC2c2c(F)cccc2OCC)cc1 (stereo not shown)            IC50           nM                    95

###

Some compounds, each annotated with its measured log10 of IC50.
TARGET DESC: UniProt O43613
ASSAY DETAILS: In vitro assay: intracellular calcium measurements (FLIPR), antagonistic activity
Format: cell-based
MEASUREMENT CONDITIONS: CHO cells, 3 nM orexin-A, compound incubation 120 min; marked values are geometric means of n = 2-6; read-out: IC50 OX1
PROPERTY LABEL: log10 of IC50 (log10 of the value in nM)

> print(dat)
                                   compound  observed.measurement
1  CCOc1cccc(F)c1[C@@H]1C[C@H](Cl)C(=O)N1Cc1ccc(OC(F)(F)F)c(Cl)c1 (racemic) [Example 462]                  2.61
2  COc1cccc(OC)c1C1CC(C)C(=O)N1Cc1ccc(OC(F)(F)C(F)F)cc1 (centres unmarked) [Example 399]                  2.24
3  CCOc1cccc(F)c1C1CC(C)C(=O)N1Cc1ccc(OC(F)F)c(Cl)c1 (centres unmarked) [Example 375]                  2.85
4  CCOc1cc(F)ccc1[C@@H]1C[C@@H](O)C(=O)N1Cc1ccc(OC(F)(F)F)cc1 (racemic) [Example 335]                  3.73
5  COc1cccc(OC)c1C1CCCC(=O)N1Cc1cccc(N2CCCC2)c1 (centres unmarked) [Example 24]                  1.34
6  COc1cccc(OC)c1C1CCCC(=O)N1Cc1cnc(OC(F)F)c(C)c1 (centres unmarked) [Example 69]                  2.39
7  COc1cccc(OC)c1C1CC(C)C(=O)N1Cc1cccc(-c2cccnc2)c1 (centres unmarked) [Example 141]                  1.54
8  COc1cccc(F)c1[C@@H]1C[C@@H](O)C(=O)N1Cc1cccc(OC(F)(F)F)c1 (racemic) [Example 430]                  3.73

###

TARGET DESC: UniProtKB O43614
ASSAY DETAILS: In vitro assay: intracellular calcium measurements (FLIPR), antagonistic activity
Type: cell-based
MEASUREMENT CONDITIONS: CHO cells, 3 nM orexin-A, compound incubation 120 min; marked values are geometric means of n = 2-6; read-out: IC50 OX2
pIC50: −log10 of the molar value.
PROPERTY LABEL: pIC50

> print(dat)
                                   molecule  observed.measurement
1  COc1cccc(OC)c1C1CCCCC(=O)N1Cc1cnc(OC(F)F)c(Cl)c1 (centres unmarked)                  7.07
2  O=C1CCCC(c2ccnn2-c2ccccc2)N1Cc1cccc(-c2ccccc2)c1 (centres unmarked)                  6.15
3  CCOc1cccc(F)c1[C@@H]1C[C@H](F)C(=O)N1Cc1ccc(OC(F)(F)F)c(F)c1 (racemic)                  7.68
4  COc1cccc(OC)c1C1CC(C)C(=O)N1Cc1cccc(-c2ccccn2)c1 (centres unmarked)                  7.14
5  COc1cccc(OC)c1C1CCC(=O)N1Cc1cccc(-n2cccn2)c1 (centres unmarked)                  6.08
6  COc1ccc(F)c(OC)c1[C@@H]1C[C@@H](O)C(=O)N1Cc1ccc(OC(F)(F)F)cc1 (racemic)                  6.13
7  COc1cccc(OC)c1C1CCCCC(=O)N1Cc1csc(-c2ccccc2)n1 (centres unmarked)                  8.22
8  CCOc1cc(F)cc(F)c1[C@@H]1C[C@H](Cl)C(=O)N1Cc1ccc(OC(F)(F)F)cc1 (racemic)                  7.20

###

TARGET DESC: human orexin-2 receptor (Homo sapiens (Human), UniProt O43614)
ASSAY DETAILS: In vitro assay: intracellular calcium measurements (FLIPR), antagonistic activity
Format: cell-based
MEASUREMENT CONDITIONS: CHO cells, 3 nM orexin-A, compound incubation 120 min; marked values are geometric means of n = 2-6; read-out: IC50 OX2
PROPERTY LABEL: IC50 (nM)

> print(dat)
                                   molecule  property.label  observed.measurement
1  CCOc1cccc(F)c1C1CC(C)C(=O)N1Cc1cnc2ccccc2c1 (stereo not shown) [Example 378]            IC50                   690
2  COc1cc(F)ccc1[C@@H]1C[C@H](F)C(=O)N1Cc1ccc(OC(F)(F)F)cc1 (racemic) [Example 303]            IC50                   143
3  COc1cccc(OC)c1C1CC(C)C(=O)N1Cc1cccc(OCC(F)(F)F)c1 (stereo not shown) [Example 417]            IC50                   110
4  COc1cccc(OC)c1C1CCCCC(=O)N1Cc1cccc(-c2csc(C)n2)c1 (stereo not shown) [Example 91]            IC50                     3

###

Form field: pIC50 (one value per entry).
TARGET DESC: human orexin-1 receptor (Homo sapiens (Human))
ASSAY DETAILS: In vitro assay: intracellular calcium measurements (FLIPR), antagonistic activity
Type: cell-based
MEASUREMENT CONDITIONS: CHO cells, 3 nM orexin-A, compound incubation 120 min; marked values are geometric means of n = 2-6; read-out: IC50 OX1
pIC50: −log10 of the molar value.
PROPERTY LABEL: pIC50

> print(dat)
                                   compound  property.label  observed.measurement
1  COc1cccc(OC)c1C1CCCC(=O)N1Cc1cccc(N2CCCCC2)c1 (stereo not drawn) [Example 13]           pIC50                  7.66
2  COc1cccc(F)c1C1CC(C)C(=O)N1Cc1ccnc(-n2cccn2)c1 (stereo not drawn) [Example 361]           pIC50                  6.07
3  COc1cccc(OC)c1C1CCCC(=O)N1Cc1cccc(-c2ccccn2)c1F (stereo not drawn) [Example 37]           pIC50                  7.14
4  COc1cccc(OC)c1C1CCCC(=O)N1Cc1cnc(OC(F)F)c(Cl)c1 (stereo not drawn) [Example 5]           pIC50                  6.65
5  CCOc1ccccc1[C@@H]1C[C@H](Cl)C(=O)N1Cc1ccc(OC(F)(F)F)cc1 (racemic) [Example 304]           pIC50                  6.21
6  COc1ccnc(OC)c1C1CCCC(=O)N1Cc1cccc(-c2ccccc2)c1 (stereo not drawn) [Example 60]           pIC50                  7.41
7  COc1cccc(OC)c1C1CC(C)C(=O)N1Cc1ccc2ccccc2n1 (stereo not drawn) [Example 348]           pIC50                  6.69
8  COc1cccc(F)c1C1CC(C)C(=O)N1Cc1ccc2oc3ccccc3c2c1 (stereo not drawn) [Example 362]           pIC50                  7.07
9  COc1ccc(F)c(OC)c1[C@@H]1C[C@H](Cl)C(=O)N1Cc1ccc(OC(F)(F)F)cc1 (racemic) [Example 330]           pIC50                  6.64
